Data origin: ChEMBL document CHEMBL3132793

experiment: Half life in human liver microsomes; assay type: ADME
measured parameter: half-life
Quick note: unit goes after the number.

Record excerpt, results attached:
compound	endpoint result
CC[C@@H]1/C=C(\C)C[C@H](C)C[C@H](OC)[C@H]2O[C@@](O)(C(=O)C(=O)N3CCCC[C@H]3C(=O)O[C@H](/C(C)=C/C3CCOCC3)[C@H](C)[C@@H](O)CC1=O)[C@H](C)C[C@@H]2OC	1.8 min
CC[C@@H]1/C=C(\C)C[C@H](C)C[C@H](OC)[C@H]2O[C@@](O)(C(=O)C(=O)N3CCCC[C@H]3C(=O)O[C@H](/C(C)=C/[C@@H]3CC[C@@H](O)[C@H](OC)C3)[C@H](C)[C@@H](O)CC1=O)[C@H](C)C[C@@H]2OC [ASCOMYCIN]	2.4 min
CC[C@@H]1/C=C(\C)C[C@H](C)C[C@H](OC)[C@H]2O[C@@](O)(C(=O)C(=O)N3CCCC[C@H]3C(=O)O[C@H](/C(C)=C/[C@@H]3CC[C@@H](O)[C@@H](F)C3)[C@H](C)[C@@H](O)CC1=O)[C@H](C)C[C@@H]2OC	3.2 min

Proceed to the following item.
// C=CC[C@@H]1/C=C(\C)C[C@H](C)C[C@H](OC)[C@H]2O[C@@](O)(C(=O)C(=O)N3CCCC[C@H]3C(=O)O[C@H](/C(C)=C/[C@H]3CC=CCC3)[C@H](C)[C@@H](O)CC1=O)[C@H](C)C[C@@H]2OC : half-life value = 5.7 min
